molecular target: mTORC1 (Homo sapiens, UniProt P42345); experiment: Inhibition of mTORC1 in human A2058 cells assessed as reduction in S6 ribosomal protein phosphorylation at Ser235/236 residues incubated for 1 hr by Western blot analysis
observable: IC50
Respond with a number, then the unit of measure.

Solved cases (6 shown):
{"smilesText": "C[C@@H]1COCCN1c1nc(-c2ccc(N)nn2)nc2c1C[C@@H]1COCCN21", "IC50": "84 nM"}
{"smilesText": "C[C@@H]1COCCN1c1nc(-c2cnc(N)cc2C(F)(F)F)nc2c1C[C@@H]1COCCN21", "IC50": "776 nM"}
{"smilesText": "C[C@@H]1COCCN1c1nc(-c2cnc(N)nc2C(F)(F)F)nc2c1C[C@@H]1COCCN21", "IC50": "694 nM"}
{"smilesText": "C[C@@H]1COCCN1c1nc(-c2cnc(N)s2)nc2c1C[C@@H]1COCCN21", "IC50": "102 nM"}
{"smilesText": "C[C@@H]1COCCN1c1nc(-c2nc(N)ns2)nc2c1C[C@@H]1COCCN21", "IC50": "261 nM"}
{"smilesText": "C[C@@H]1COCCN1c1nc(-c2cnc(N)nc2C(F)F)nc2c1C[C@@H]1COCCN21", "IC50": "119 nM"}

I need IC50 for every entry listed below, if you could help.
1. C[C@@H]1COCCN1c1nc(-c2nnc(N)s2)nc2c1C[C@@H]1COCCN21
2. C[C@@H]1COCCN1c1nc(-c2cnc(N)cc2C(F)F)nc2c1C[C@@H]1COCCN21
3. C[C@@H]1COCCN1c1nc(-c2cnc(N)c(C(F)(F)F)c2)nc2c1C[C@@H]1COCCN21

["80 nM", "67 nM", "348 nM"]

====

experiment: Inhibition of mTORC2 in human A2058 cells assessed as reduction in PKB phosphorylation at S473 residue incubated for 1 hr by Western blot analysis; format: cell-based; conditions: A2058, 1 h
So I've got a bunch of compounds here, and I need their IC50 values.
Respond with a number, then the unit of measure.

{"smilesText": "C[C@@H]1COCCN1c1nc(-c2cnc(N)cc2C(F)(F)F)nc2c1C[C@@H]1COCCN21", "observable": "IC50", "readoutValue": "1090 nM"}

I need IC50 for every entry listed below, if you could help.
1. C[C@@H]1COCCN1c1nc(-c2ccc(N)nn2)nc2c1C[C@@H]1COCCN21
2. C[C@@H]1COCCN1c1nc(-c2cnc(N)cc2C(F)F)nc2c1C[C@@H]1COCCN21
3. C[C@@H]1COCCN1c1nc(-c2cnc(N)c(C(F)(F)F)c2)nc2c1C[C@@H]1COCCN21
4. C[C@@H]1COCCN1c1nc(-c2cnc(N)s2)nc2c1C[C@@H]1COCCN21
5. C[C@@H]1COCCN1c1nc(-c2cnc(N)nc2C(F)(F)F)nc2c1C[C@@H]1COCCN21
6. C[C@@H]1COCCN1c1nc(-c2nnc(N)s2)nc2c1C[C@@H]1COCCN21

["162 nM", "253 nM", "549 nM", "157 nM", "446 nM", "135 nM"]

# lookup: IC50 of "C[C@@H]1COCCN1c1nc(-c2nc(N)ns2)nc2c1C[C@@H]1COCCN21"
512 nM

====

target: MDR1 (P-gp, ABCB1) (Homo sapiens, UniProt P08183); assay: Substrate activity at human MDR1 expressed in MDCK cells assessed as efflux ratio of apparent permeability across basolateral to apical side over apical to basolateral side at 1 uM by UPLS-MS/MS analysis; assay type: ADME, cell-based
Sequence (P08183 whole entry): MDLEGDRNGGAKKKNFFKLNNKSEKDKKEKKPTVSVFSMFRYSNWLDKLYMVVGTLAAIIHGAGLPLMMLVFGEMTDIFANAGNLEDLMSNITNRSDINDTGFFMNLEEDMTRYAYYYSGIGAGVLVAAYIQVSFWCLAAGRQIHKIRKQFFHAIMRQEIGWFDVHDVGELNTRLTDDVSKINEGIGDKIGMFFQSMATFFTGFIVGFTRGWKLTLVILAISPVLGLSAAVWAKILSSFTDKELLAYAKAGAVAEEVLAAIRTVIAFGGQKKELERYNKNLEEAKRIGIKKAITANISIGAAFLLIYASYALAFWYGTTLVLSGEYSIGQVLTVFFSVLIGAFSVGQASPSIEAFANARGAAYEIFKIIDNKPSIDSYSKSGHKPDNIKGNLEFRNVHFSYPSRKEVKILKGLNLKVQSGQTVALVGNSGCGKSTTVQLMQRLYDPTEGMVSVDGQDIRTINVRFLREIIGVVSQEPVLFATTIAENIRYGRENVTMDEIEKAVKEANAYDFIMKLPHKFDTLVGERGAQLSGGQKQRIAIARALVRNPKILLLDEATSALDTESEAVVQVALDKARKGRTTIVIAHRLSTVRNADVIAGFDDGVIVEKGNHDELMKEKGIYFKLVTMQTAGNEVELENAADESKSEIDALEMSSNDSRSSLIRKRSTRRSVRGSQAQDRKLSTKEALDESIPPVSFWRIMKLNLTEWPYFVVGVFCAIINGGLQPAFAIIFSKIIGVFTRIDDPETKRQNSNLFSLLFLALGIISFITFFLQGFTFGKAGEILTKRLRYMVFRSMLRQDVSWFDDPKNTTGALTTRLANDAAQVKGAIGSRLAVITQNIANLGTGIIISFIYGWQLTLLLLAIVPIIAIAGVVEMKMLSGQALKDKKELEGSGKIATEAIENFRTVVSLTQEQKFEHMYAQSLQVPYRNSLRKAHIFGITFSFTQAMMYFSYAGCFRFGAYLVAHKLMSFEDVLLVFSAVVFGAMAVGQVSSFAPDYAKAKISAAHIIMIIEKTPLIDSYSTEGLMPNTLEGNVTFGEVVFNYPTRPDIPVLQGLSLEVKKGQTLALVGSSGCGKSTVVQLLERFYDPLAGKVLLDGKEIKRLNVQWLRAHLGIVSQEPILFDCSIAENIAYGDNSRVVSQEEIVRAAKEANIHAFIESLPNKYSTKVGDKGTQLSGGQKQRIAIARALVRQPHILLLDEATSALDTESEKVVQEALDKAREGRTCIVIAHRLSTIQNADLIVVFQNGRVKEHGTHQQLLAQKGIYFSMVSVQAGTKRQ
So I've got a bunch of compounds here, and I need their efflux ratio at 1 µM values.

Solved cases (2 shown):
{"smilesText": "C[C@@H]1COCCN1c1nc(-c2cnc(N)s2)nc2c1C[C@@H]1COCCN21", "efflux ratio at 1 µM": "> 20"}
{"smilesText": "C[C@@H]1COCCN1c1nc(-c2cnc(N)cn2)nc2c1C[C@@H]1COCCN21", "efflux ratio at 1 µM": "> 20"}

Now look at this entry.
# lookup: efflux ratio at 1 µM of "C[C@@H]1COCCN1c1nc(-c2nnc(N)s2)nc2c1C[C@@H]1COCCN21"
> 20

====

biological target: Serine/threonine-protein kinase mTOR (Homo sapiens, UniProt P42345); experiment: Inhibition of alexa fluor 647-labeled kinase tracer 314 binding to recombinant N-terminal GST-fused mTOR (1360 to 2549 residues) (unknown origin) by TR-FRET assay
observable: pKi
Give bare numbers, as −log10 of the molar value.

Solved cases (5 shown):
{"smilesText": "C[C@@H]1COCCN1c1nc(-c2cnc(N)cc2C(F)(F)F)nc2c1C[C@@H]1COCCN21", "pKi": 6.93}
{"smilesText": "C[C@@H]1COCCN1c1nc(-c2cnc(N)nc2C(F)(F)F)nc2c1C[C@@H]1COCCN21", "pKi": 6.60}
{"smilesText": "C[C@@H]1COCCN1c1nc(-c2nc(N)ns2)nc2c1C[C@@H]1COCCN21", "pKi": 7.24}
{"smilesText": "C[C@@H]1COCCN1c1nc(-c2cnc(N)c(C(F)(F)F)c2)nc2c1C[C@@H]1COCCN21", "pKi": 7.48}
{"smilesText": "C[C@@H]1COCCN1c1nc(-c2nnc(N)s2)nc2c1C[C@@H]1COCCN21", "pKi": 8.09}

I need pKi for every entry listed below, if you could help.
1. C[C@@H]1COCCN1c1nc(-c2cnc(N)s2)nc2c1C[C@@H]1COCCN21
2. C[C@@H]1COCCN1c1nc(-c2cnc(N)nc2C(F)F)nc2c1C[C@@H]1COCCN21
3. C[C@@H]1COCCN1c1nc(-c2cnc(N)cc2C(F)F)nc2c1C[C@@H]1COCCN21

7.82
7.47
7.92

# lookup: pKi of "C[C@@H]1COCCN1c1nc(-c2ccc(N)nn2)nc2c1C[C@@H]1COCCN21"
7.96

====

molecular target: MDR1 (P-gp, ABCB1) (Homo sapiens, UniProt P08183); test: Substrate activity at human MDR1 expressed in MDCK cells assessed as apparent permeability at 1 uM by UPLS-MS/MS analysis; format: ADME, cell-based
So I've got a bunch of molecules here, and I need their Papp A→B at 1 µM values.

I need Papp A→B at 1 µM for every entry listed below, if you could help.
1. C[C@@H]1COCCN1c1nc(-c2cnc(N)cn2)nc2c1C[C@@H]1COCCN21
2. C[C@@H]1COCCN1c1nc(-c2cnc(N)s2)nc2c1C[C@@H]1COCCN21

< 60 ×10⁻⁶ cm/s
< 60 ×10⁻⁶ cm/s

So what Papp A→B at 1 µM did "C[C@@H]1COCCN1c1nc(-c2nnc(N)s2)nc2c1C[C@@H]1COCCN21" get with MDR1 (P-gp, ABCB1) (Homo sapiens, UniProt P08183)?
< 60 ×10⁻⁶ cm/s

====

So I've got a bunch of compounds here, and I need their pKi values.
target: Phosphatidylinositol 4,5-bisphosphate 3-kinase catalytic subunit alpha isoform (Homo sapiens, UniProt P42336); experiment: Inhibition of alexa fluor 647-labeled kinase tracer 314 binding to recombinant N-terminal His6-tagged p110alpha (unknown origin) by TR-FRET assay
Sequence (P42336 whole entry, canonical isoform): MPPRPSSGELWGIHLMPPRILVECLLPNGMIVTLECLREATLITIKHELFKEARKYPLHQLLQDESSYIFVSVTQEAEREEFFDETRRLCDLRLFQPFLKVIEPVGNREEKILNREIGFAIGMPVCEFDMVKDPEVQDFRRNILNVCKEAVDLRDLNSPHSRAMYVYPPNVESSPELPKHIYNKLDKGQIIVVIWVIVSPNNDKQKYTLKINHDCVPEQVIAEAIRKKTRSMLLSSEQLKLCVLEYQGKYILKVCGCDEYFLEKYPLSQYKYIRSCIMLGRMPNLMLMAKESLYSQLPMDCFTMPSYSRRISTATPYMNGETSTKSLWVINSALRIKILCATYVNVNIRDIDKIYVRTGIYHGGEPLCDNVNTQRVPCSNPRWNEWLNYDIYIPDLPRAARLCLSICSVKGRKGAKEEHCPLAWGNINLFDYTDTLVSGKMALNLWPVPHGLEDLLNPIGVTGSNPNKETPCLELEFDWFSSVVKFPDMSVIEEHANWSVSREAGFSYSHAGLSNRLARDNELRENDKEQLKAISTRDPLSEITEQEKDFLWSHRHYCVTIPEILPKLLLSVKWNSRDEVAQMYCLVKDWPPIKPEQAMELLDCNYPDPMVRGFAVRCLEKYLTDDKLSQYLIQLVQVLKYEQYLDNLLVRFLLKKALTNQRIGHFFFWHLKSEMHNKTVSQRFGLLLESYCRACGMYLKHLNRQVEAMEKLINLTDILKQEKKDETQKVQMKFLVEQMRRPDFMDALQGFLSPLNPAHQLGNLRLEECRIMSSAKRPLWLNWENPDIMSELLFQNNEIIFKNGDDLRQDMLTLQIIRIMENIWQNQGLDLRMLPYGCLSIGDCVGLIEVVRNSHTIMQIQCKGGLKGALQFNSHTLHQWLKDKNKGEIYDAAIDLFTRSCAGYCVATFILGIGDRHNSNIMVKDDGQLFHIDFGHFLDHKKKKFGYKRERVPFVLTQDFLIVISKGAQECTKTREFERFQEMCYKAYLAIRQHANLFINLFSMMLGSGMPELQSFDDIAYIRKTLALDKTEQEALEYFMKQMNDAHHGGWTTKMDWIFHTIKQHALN
One number for each entry, as −log10 of the molar value.

I need pKi for every entry listed below, if you could help.
1. C[C@@H]1COCCN1c1nc(-c2cnc(N)nc2C(F)F)nc2c1C[C@@H]1COCCN21
2. C[C@@H]1COCCN1c1nc(-c2cnc(N)s2)nc2c1C[C@@H]1COCCN21
3. C[C@@H]1COCCN1c1nc(-c2nnc(N)s2)nc2c1C[C@@H]1COCCN21

1. 7.77
2. 5.60
3. 5.81

I need pKi for every entry listed below, if you could help.
1. C[C@@H]1COCCN1c1nc(-c2cnc(N)cc2C(F)F)nc2c1C[C@@H]1COCCN21
2. C[C@@H]1COCCN1c1nc(-c2cnc(N)cc2C(F)(F)F)nc2c1C[C@@H]1COCCN21
3. C[C@@H]1COCCN1c1nc(-c2cnc(N)nc2C(F)(F)F)nc2c1C[C@@H]1COCCN21
4. C[C@@H]1COCCN1c1nc(-c2nc(N)ns2)nc2c1C[C@@H]1COCCN21
5. C[C@@H]1COCCN1c1nc(-c2ccc(N)nn2)nc2c1C[C@@H]1COCCN21

1: 6.63; 2: 6.57; 3: 7.26; 4: 6.09; 5: 6.07

====

Target: CYP1A2 (Homo sapiens, UniProt P05177)
Sequence (P05177 whole entry): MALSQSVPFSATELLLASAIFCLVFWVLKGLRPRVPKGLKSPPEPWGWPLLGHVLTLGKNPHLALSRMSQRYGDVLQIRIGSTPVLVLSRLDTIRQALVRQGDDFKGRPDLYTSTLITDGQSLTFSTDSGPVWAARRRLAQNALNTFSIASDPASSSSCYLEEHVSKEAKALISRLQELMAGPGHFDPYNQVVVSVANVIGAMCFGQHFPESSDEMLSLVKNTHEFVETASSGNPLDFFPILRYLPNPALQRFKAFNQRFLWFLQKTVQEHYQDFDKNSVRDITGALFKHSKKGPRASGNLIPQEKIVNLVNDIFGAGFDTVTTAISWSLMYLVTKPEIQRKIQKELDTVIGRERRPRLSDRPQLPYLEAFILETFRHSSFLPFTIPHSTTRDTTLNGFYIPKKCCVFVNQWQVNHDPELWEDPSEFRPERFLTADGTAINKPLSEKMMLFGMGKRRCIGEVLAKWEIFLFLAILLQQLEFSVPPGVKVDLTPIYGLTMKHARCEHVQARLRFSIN
Assay: Stability of compound assessed as recombinant human CYP1A2 expressed in baculovirus infected insect cells mediated compound metabolism by measuring parent compound remaining at 1 uM preincubated with NADP+ regenerating system for 10 mins followed by enzyme addition and measured after 60 mins by LC-MS analysis
Assay type: ADME
Settings: time 70 min, read-out: Stabilty
observable: remaining at 1 h, 1 µM (%)
Answers are plain numbers, in %.

# lookup: remaining at 1 h, 1 µM of "C[C@@H]1COCCN1c1nc(-c2cnc(N)s2)nc2c1C[C@@H]1COCCN21"
87
